src = ChEMBL document CHEMBL1201862

Tested on: CCRF-CEM
ASSAY REMARKS: NCI tumour cell line growth inhibition, 48 h
Calls of active or inactive are those of the source. No stated cut-off is given here; in the data, active = GI50 up to about 1.1 µM and inactive = higher.
MEASURED ENDPOINT: GI50

| COMPOUND | GI50 |
| --- | --- |
| Nc1nc(=O)n(CC(O)CO)s1 (stereo unspecified) | > 100 µM (inactive) |
| CC(Cc1cccc2c1Nc1ccccc1S2)N(C)CCO (stereo unspecified) | > 100 µM (inactive) |
| COC(=O)[C@H](Cc1c[nH]c2ccccc12)NC(=O)OCC1OC(n2cc(C)c(=O)[nH]c2=O)CC1N=[N+]=[N-] (stereo partly specified) | 93.3 µM (inactive) |
| O=C(N/N=C\C(F)(F)F)c1ccncc1 | 3.48 µM (inactive) |

Look at each compound and report its GI50.
1. Cn1c(=O)c2c(nc3sc4nc5ccccc5nc4n32)n(C)c1=O
2. OCCCCCNc1ccnc2cc(Cl)ccc12

## Result
1: > 100 µM (inactive); 2: > 100 µM (inactive)
